Attribute: pKd
Target: T1, RSV F glycoprotein (NUF4) (respiratory syncytial virus)
T1 chain 1: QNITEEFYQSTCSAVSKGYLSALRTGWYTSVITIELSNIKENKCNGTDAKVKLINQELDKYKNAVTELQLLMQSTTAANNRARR
T1 chain 2: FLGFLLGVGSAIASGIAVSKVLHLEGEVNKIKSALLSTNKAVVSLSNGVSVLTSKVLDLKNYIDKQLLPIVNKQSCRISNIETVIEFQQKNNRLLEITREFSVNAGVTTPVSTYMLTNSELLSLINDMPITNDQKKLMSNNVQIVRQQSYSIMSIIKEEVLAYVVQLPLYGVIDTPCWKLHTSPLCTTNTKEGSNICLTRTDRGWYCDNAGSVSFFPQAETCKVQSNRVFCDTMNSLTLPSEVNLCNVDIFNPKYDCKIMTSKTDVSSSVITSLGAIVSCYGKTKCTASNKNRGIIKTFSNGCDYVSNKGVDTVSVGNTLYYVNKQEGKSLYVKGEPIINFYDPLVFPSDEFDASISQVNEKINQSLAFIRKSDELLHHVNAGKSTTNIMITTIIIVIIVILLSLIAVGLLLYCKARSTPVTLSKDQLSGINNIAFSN
Assay: SPR (BIAcore), mAb vs NUF4 (2:1)
Field pKd (float): negative decimal logarithm of the concentration in molar.

Recorded results for 3 binders are shown here.
[
  {
    "binder": "P12f2 IgG (antibody, V domains shown) VH: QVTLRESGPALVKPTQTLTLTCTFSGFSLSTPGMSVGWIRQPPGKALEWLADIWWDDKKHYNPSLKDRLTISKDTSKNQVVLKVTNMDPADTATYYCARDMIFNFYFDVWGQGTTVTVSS VL: DIQMTQSPSTLSASVGDRVTITCSLSSRVGYMHWYQQKPGKAPKLLIYDTFYLSSGVPSRFSGSGSGTEFTLTISSLQPDDFATYYCFQGSGYPFTFGGGTKVEIKR",
    "assay.metric": "pKd",
    "meas.value": 9.08
  },
  {
    "binder": "A13c4 IgG (antibody, V domains shown) VH: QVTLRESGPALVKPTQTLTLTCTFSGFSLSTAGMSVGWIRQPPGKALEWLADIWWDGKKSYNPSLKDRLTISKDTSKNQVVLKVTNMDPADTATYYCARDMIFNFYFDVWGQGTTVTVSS VL: DIQMTQSPSTLSASVGDRVTITCSLSSRVGYMHWYQQKPGKAPKLLIYDTMYQSSGVPSRFSGSGSGTEFTLTISSLQPDDFATYYCFQGSGYPFTFGGGTKVEIKR",
    "assay.metric": "pKd",
    "meas.value": 9.15
  },
  {
    "binder": "P11d4 IgG (antibody, V domains shown) VH: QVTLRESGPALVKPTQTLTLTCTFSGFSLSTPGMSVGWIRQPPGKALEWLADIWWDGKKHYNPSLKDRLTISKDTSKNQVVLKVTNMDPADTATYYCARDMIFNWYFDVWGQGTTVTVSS VL: DIQMTQSPSTLSASVGDRVTITCSPSSRVGYMHWYQQKPGKAPKLLIYDTMRLASGVPSRFSGSGSGTEFTLTISSLQPDDFATYYCFQGSGYPFTFGGGTKVEIKR",
    "assay.metric": "pKd",
    "meas.value": 8.07
  }
]

Provide measured pKd value, entry: P12f4 IgG (antibody, V domains shown) VH: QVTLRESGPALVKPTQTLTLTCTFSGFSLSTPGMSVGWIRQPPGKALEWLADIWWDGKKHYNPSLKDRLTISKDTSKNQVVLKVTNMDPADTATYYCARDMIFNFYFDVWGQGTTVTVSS VL: DIQMTQSPSTLSASVGDRVTITCSLSSRVGYMHWYQQKPGKAPKLLIYDTRGLPSGVPSRFSGSGSGTEFTLTISSLQPDDFATYYCFQGSGYPFTFGGGTKVEIKR
8.63

Provide measured pKd value, entry: A4B4 IgG (antibody, V domains shown) VH: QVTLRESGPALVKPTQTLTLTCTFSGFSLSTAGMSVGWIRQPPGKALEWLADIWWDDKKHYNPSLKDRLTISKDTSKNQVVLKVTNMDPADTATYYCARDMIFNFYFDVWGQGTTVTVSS VL: DIQMTQSPSTLSASVGDRVTITCSASSRVGYMHWYQQKPGKAPKLLIYDTFFLDSGVPSRFSGSGSGTEFTLTISSLQPDDFATYYCFQGSGYPFTFGGGTKVEIKR
8.70
